system-name: T1, Human CTLA-4-Fc (Chimerigen, CHI-HF-210A4-M001) (human, UniProt P16410 37-162)
T1 construct: Bought protein; also called hCTLA-4; not shown: Fc part of the bought fusion
T1 sequence (P16410 37-162 limits assumed, change not shown): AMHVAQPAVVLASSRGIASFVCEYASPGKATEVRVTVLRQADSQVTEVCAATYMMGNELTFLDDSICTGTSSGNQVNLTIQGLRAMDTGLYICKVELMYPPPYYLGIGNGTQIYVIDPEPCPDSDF
test-description: SPR (Biacore T200), human CTLA-4-Fc captured by anti-human IgG-Fc, mutein as analyte, 1:1 fit
attribute-measured: kon (M⁻¹ s⁻¹)
Give bare numbers, in M⁻¹ s⁻¹.

Recorded results for 2 binders are shown here.
{"binder": "lipocalin mutein SEQ ID NO: 61 (designed binder) QDSTSDLIPAPPLSKVPLQQNFQDNQFQGKWYVVGLAGNRILRLDQHPMPMYATIYELKGDKSYNVTSVISSHKKCLYPIATFVPGSQPGEFTLGNIRSYGDKTSYLVRVVSTDYNQYAVVFFKHADTNYESFSITIYGRTKELASELKENFIRFSKSLGLPENHIVFPVPIDQCIDG", "kon, M⁻¹ s⁻¹": 770000}
{"binder": "lipocalin mutein SEQ ID NO: 66 (designed binder) QDSTSDLIPAPPLSKVPLQQNFQDNQFQGKWYVVGLAGNRILRLDQHPMPMYATIYELKEDKSYQVTSVISSHKKCLYPIATFVPGSQPGEFTLGNIRSYGDKTSYLVRVVSTNYNQHAMVFFKHADTNYESFSITLYGRTKELTSELKENFIRFSKSLGLPENHIVFPVPIDQCIDGSAWSHPQFEK", "kon, M⁻¹ s⁻¹": 750000}

Entry lipocalin mutein SEQ ID NO: 65 (designed binder) QDSTSDLIPAPPLSKVPLQQNFQDNQFQGKWYVVGLAGNRILRDDQHPMPMYATIYELKEDKSYQVTSVISSHKKCLYPIATFVPGSQPGEFTLGNIKSYGDKWSYLVRVVSTNYNQHAMVFFKHADSNYESFSITLYGRTKELTSELKENFIRFSKSLGLPENHIVFPVPIDQCIDGSAWSHPQFEK ; kon = 710000
